Origin of the recorded values: PubChem BioAssay (NCI)

Catalogue of compounds with associated TGI
Tested on: UACC-257 melanoma
experiment_notes: NCI tumour cell line growth inhibition, 48 h
The reply should be a number in µM, with the unit left off.

Query: // lookup TGI for COc1ccc2c(c1)C(=O)c1c-2n(CCCN)c(=O)c2cc([N+](=O)[O-])ccc12
Result: 0.736

Further cases:
Query: TGI for O=c1c(O)cccn1CCCN(CCCn1cccc(O)c1=O)CCn1cccc(O)c1=O ?
Result: 22.4

Query: Param item = CCCCCCCCCCCCCP(=O)(NCC(N)=O)OCC (stereo not given) ; retrieve measured TGI.
Result: 36.1

Query: Would you kindly share the measured TGI for O=S(=O)(NC1=NCCN1C(=S)SN1CCn2c1nsc2=S)c1cccc(OC(F)(F)F)c1 ?
Result: 38.1

Query: Requested field: TGI. Item: O=C(/C=C(\O)c1ccccc1)/C(=C/C(=O)c1ccccc1)NN=C(c1ccccc1)c1ccccc1
Result: 73.1
